Please provide measured koff for the entries that follow.
- System Tested: T1, Rat Serum Albumin (rat, UniProt P02770 25-608)
- T1 construct: mature; purified protein on CM5 chips for BIAcore; also called RSA; rat SA
- T1 sequence (P02770 25-608): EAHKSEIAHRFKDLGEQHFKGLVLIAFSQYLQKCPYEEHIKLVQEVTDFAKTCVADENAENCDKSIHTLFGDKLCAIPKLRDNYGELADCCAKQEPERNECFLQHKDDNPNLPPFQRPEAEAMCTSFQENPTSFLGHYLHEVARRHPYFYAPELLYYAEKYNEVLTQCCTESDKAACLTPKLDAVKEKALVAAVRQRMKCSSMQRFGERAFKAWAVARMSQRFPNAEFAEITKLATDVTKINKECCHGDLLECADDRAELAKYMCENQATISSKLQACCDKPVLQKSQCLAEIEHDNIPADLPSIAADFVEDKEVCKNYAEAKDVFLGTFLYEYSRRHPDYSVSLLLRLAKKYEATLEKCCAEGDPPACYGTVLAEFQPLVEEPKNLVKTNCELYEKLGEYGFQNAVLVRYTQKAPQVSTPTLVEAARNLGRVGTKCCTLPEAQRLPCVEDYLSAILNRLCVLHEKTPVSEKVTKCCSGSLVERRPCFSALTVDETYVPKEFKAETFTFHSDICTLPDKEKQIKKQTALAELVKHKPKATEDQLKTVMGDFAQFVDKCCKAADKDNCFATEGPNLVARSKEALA
- Protocol Details: BIAcore SPR;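 note: purified dAbs run at 1 µM, 500 nM and 50 nM over human, cynomolgus, mouse and rat serum albumin in BIAcore binding measurements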
Report the figure in s⁻¹ without appending any unit label.

Input: Give the measured koff for DOM7h-11-18 (other) VL: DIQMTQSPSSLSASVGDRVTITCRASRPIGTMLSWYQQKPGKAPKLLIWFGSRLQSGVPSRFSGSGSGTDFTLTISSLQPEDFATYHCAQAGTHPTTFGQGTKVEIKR
Output: 0.06

Input: Give the measured koff for DOM7h-11-12 (other) VL: DIQMTQSPSSLSASVGDRVTITCRASRPIGTMLSWYQQKPGKAPKLLILFGSRLQSGVPSRFSGSGSGTDFTLTISSLQPEDFATYYCAQAGTHPTTFGQGTKVEIKR
Output: 0.522

Input: Give the measured koff for DOM7h-11-15 (other) VL: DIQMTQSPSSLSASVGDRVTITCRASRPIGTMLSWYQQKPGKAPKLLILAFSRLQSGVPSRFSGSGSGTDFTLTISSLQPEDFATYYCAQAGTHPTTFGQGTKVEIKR
Output: 0.021
